target-system: T1, human carcinoembryonic antigen (CEA), membrane-bound on cells (human, UniProt P06731 35-685)
T1 construct: whole, on cells; also called CEACAM-5; CD66e
T1 sequence (looked up): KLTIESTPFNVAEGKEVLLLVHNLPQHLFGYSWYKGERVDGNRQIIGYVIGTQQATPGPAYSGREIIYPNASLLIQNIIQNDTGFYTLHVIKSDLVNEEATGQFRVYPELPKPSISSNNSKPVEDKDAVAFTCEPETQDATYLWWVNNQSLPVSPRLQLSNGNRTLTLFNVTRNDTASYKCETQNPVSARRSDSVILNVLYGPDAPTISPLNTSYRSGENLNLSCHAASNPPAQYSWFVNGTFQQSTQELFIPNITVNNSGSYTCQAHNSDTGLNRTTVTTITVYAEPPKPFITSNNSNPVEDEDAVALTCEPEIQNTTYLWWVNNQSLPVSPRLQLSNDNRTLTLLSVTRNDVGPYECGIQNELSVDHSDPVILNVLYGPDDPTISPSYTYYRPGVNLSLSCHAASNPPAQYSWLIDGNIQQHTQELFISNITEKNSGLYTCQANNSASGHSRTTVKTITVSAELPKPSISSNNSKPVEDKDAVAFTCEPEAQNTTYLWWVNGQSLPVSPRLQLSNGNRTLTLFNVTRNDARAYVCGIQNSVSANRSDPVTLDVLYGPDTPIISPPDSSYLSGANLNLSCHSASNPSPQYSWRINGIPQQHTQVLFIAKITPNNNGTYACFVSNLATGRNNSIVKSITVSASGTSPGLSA
protocol-notes: flow cytometry on MKN45 cells, IgG1/kappa
recorded-endpoint: EC50 (read off the curve)

[[record]]
binder = "antibody with affinity matured heavy chain variable region CH7A rF9 and affinity matured light chain variable region CL1A rH11 (antibody, V domains shown, The suffix G2(1) is not explained; also called CH7ArF9 CL1A rH11; CH7Arf9, CL1A rH11G2(1)) VH: QVQLVQSGSELKKPGASVKVSCKASGYTFTEYGMNWVRQAPGQGLEWMGWINTKSGEATYVEEFKGRFVFSLDTSVSTAYLQISSLKAEDTAVYYCARWDFYDYVEAMDYWGQGTTVTVSS VL: DIQMTQSPSSLSASVGDRVTITCKASQTVSANVAWYQQKPGKAPKLLIYLASYRYRGVPSRFSGSGSGTDFTLTISSLQPEDFATYYCHQYYTYPLFTFGQGTKLEIK"
assay_result = "~0.5 µg/mL"

[[record]]
binder = "antibody with parent heavy chain variable region CH7A and affinity matured light chain variable region CL1A rH11 (antibody, V domains shown, The suffix G2(1) is not explained; also called CH7A, CL1ArH11; CH7A, CL1A rH11 G2(1)) VH: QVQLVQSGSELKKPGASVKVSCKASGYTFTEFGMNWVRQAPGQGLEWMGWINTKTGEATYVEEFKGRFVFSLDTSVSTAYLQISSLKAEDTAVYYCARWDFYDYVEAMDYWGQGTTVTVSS VL: DIQMTQSPSSLSASVGDRVTITCKASQTVSANVAWYQQKPGKAPKLLIYLASYRYRGVPSRFSGSGSGTDFTLTISSLQPEDFATYYCHQYYTYPLFTFGQGTKLEIK"
assay_result = "~0.3 µg/mL"

[[record]]
binder = "humanized PR1A3 antibody comprising heavy chain variable region construct CH7A and light chain variable region construct CL1A (antibody, human IgG1, V domains shown, also called CH7A CL1A; CH7A, CL1A) VH: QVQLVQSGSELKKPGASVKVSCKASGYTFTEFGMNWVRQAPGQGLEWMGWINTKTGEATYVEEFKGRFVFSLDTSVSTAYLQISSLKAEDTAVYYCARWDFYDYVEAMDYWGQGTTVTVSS VL: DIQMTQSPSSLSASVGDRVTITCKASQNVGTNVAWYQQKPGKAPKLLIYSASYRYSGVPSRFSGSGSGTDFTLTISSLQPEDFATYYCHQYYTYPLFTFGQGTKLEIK"
assay_result = "~0.6 µg/mL"


Let us examine a further case.
# input Fill in the blank: the reported EC50 (read off the curve) of antibody with affinity matured heavy chain variable region CH7A rF9 and parent light chain variable region CL1A (antibody, human IgG1, V domains shown, also called CH7A rF9, CL1A) VH: QVQLVQSGSELKKPGASVKVSCKASGYTFTEYGMNWVRQAPGQGLEWMGWINTKSGEATYVEEFKGRFVFSLDTSVSTAYLQISSLKAEDTAVYYCARWDFYDYVEAMDYWGQGTTVTVSS VL: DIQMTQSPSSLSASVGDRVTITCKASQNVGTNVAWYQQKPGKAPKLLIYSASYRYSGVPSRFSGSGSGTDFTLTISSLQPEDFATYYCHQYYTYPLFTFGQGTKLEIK is ____.
# output ~0.7 µg/mL

Cited source for all entries: patent US20230365711A1
